- testedOn: human orexin type 2 receptor (hOX2R) (Homo sapiens, UniProt O43614)
- Construct: expressed in transfected cells
- experimentalProtocol: Measurement of orexin type 2 receptor agonist activity (FLIPR calcium fluorescence)
- Assay type: cell-based
- conditionContext: CHO cells expressing hOX2R, FLIPR calcium fluorescence; read-out: hOx2 pEC50 (converted)
parameterMeasured: EC50

{"molecule": "C[C@@H](CC#N)NC(=O)N1CC2(CC2)[C@H](NS(C)(=O)=O)[C@@H]1Cc1cccc(-c2ccccc2)c1F", "experimentalValue": "1 to 10 nM"}
{"molecule": "CS(=O)(=O)N[C@@H]1[C@H](Cc2cccc(-c3ccccc3)c2F)N(C(=O)NCCCF)CC12CC2", "experimentalValue": "1 to 10 nM"}
{"molecule": "CCCS(=O)(=O)N[C@@H]1[C@H](Cc2cccc(-c3ccccc3)c2)N(C(=O)[C@H]2CCO2)CC12CC2", "experimentalValue": "10 to 100 nM"}
{"molecule": "CS(=O)(=O)N[C@@H]1[C@H](Cc2cccc(-c3ccccc3)c2)N(C(=O)C2(C#N)CCO2)CC12CC2 (stereo partly shown)", "experimentalValue": "10 to 100 nM"}
{"molecule": "O=C([C@H](O)C(F)(F)F)N1CC2(CC2)[C@H](NS(=O)(=O)CF)[C@@H]1Cc1cccc(-c2ccccc2)c1F", "experimentalValue": "1 to 10 nM"}
{"molecule": "O=C([C@H]1C[C@@H](F)C1)N1CC2(CC2)[C@H](NS(=O)(=O)C(F)F)[C@@H]1Cc1cccc(-c2ccccc2)c1F", "experimentalValue": "1 to 10 nM"}
{"molecule": "Cn1ccc(S(=O)(=O)N[C@@H]2[C@H](Cc3cccc(-c4ccccc4)c3)N(C(=O)[C@H]3CCO3)CC23CC3)n1", "experimentalValue": "1 to 10 nM"}
{"molecule": "CC(C)S(=O)(=O)N[C@@H]1[C@H](Cc2cc(F)cc(-c3cc(F)cc(F)c3)c2F)N(C(=O)[C@H]2CCO2)CC12CC2", "experimentalValue": "0.0794 to 1 nM"}
{"molecule": "[2H]C([2H])([2H])c1cccc(-c2cccc(C[C@H]3[C@@H](NS(=O)(=O)C(F)F)C4(CC4)CN3C(=O)[C@H]3CCO3)c2F)c1", "experimentalValue": "0.0794 to 1 nM"}
{"molecule": "O=C([C@H]1CCO1)N1CC2(CC2)[C@H](NS(=O)(=O)C(F)F)[C@@H]1Cc1cccc(-c2ccccc2F)c1F", "experimentalValue": "1 to 10 nM"}
{"molecule": "O=C(NCC1(F)CC1)N1CC2(CC2)[C@H](NS(=O)(=O)C(F)F)[C@@H]1Cc1cccc(-c2cc(F)cc(F)c2)c1F", "experimentalValue": "1 to 10 nM"}
{"molecule": "CS(=O)(=O)N[C@@H]1[C@H](Cc2cccc(-c3ccccc3)c2)N(C(=O)[C@H](O)CF)CC12CC2", "experimentalValue": "10 to 100 nM"}
{"molecule": "CS(=O)(=O)N[C@@H]1[C@H](Cc2cccc(-c3ccccc3)c2F)N(C(=O)NC[C@H]2CCOC2)CC12CC2", "experimentalValue": "1 to 10 nM"}

----------
- testedOn: human orexin type 2 receptor (hOX2R) (Homo sapiens)
- Construct: expressed in transfected cells
- Sequence (O43614 1-444): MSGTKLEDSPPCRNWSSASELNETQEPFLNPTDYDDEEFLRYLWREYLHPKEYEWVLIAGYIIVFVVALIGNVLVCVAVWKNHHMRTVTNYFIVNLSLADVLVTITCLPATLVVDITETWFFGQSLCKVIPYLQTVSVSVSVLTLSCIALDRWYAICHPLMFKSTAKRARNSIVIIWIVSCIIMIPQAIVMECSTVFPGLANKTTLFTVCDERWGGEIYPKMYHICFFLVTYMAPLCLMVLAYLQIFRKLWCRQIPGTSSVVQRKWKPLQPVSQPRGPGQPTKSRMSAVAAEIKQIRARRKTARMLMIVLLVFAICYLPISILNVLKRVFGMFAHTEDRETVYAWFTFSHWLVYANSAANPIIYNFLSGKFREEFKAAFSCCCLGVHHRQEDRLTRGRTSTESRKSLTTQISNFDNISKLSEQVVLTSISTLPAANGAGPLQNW
- experimentalProtocol: Measurement of orexin type 2 receptor agonist activity (FLIPR calcium fluorescence)
- Format: cell-based
- conditionContext: CHO, CHO cells expressing hOX2R, FLIPR calcium fluorescence; read-out: hOx2 Emax (%)
Listing: Emax of selected compounds
parameterMeasured: Emax

{"compound": "O=C([C@H](O)CF)N1CC2(CC2)[C@H](NS(=O)(=O)CF)[C@@H]1Cc1cc(F)cc(-c2cc(F)cc(F)c2)c1F", "experimentalValue": "90 to 100%"}
{"compound": "O=C([C@H]1CCO1)N1CC2(CC2)[C@H](NS(=O)(=O)C2(F)CC2)[C@@H]1Cc1cccc(-c2ccccc2)c1F", "experimentalValue": "90 to 100%"}
{"compound": "[2H]c1ccc(-c2cc(F)cc(C[C@H]3[C@@H](NS(C)(=O)=O)C4(CC4)CN3C(=O)[C@H]3CCO3)c2F)cc1", "experimentalValue": "90 to 100%"}
{"compound": "CN(C1CC1)S(=O)(=O)N[C@@H]1[C@H](Cc2cccc(-c3ccccc3)c2)N(C(=O)[C@H]2CCO2)CC12CC2", "experimentalValue": "80 to 90%"}
{"compound": "[2H]C([2H])([2H])C([2H])([2H])NC(=O)N1CC2(CC2)[C@H](NS(C)(=O)=O)[C@@H]1Cc1cccc(-c2ccccc2)c1OC", "experimentalValue": "70 to 80%"}
{"compound": "COC[C@H](C)NC(=O)N1CC2(CC2)[C@H](NS(C)(=O)=O)[C@@H]1Cc1cccc(-c2ccccc2)c1F", "experimentalValue": "90 to 100%"}
{"compound": "CC(C)C(=O)N1CC2(CC2)[C@H](NS(=O)(=O)N(C)C)[C@@H]1Cc1cccc(-c2ccccc2)c1 (racemic)", "experimentalValue": "90 to 100%"}
{"compound": "CCCNC(=O)N1CC2(CC2)[C@H](NS(C)(=O)=O)[C@@H]1Cc1cccc(-c2ccccc2)c1OC", "experimentalValue": "70 to 80%"}
{"compound": "C[C@H](CF)NC(=O)N1CC2(CC2)[C@H](NS(C)(=O)=O)[C@@H]1Cc1cccc(-c2ccccc2)c1F", "experimentalValue": "90 to 100%"}
{"compound": "COC1CN(C(=O)N2CC3(CC3)[C@H](NS(=O)(=O)N(C)C)[C@@H]2Cc2cccc(-c3ccccc3)c2F)C1", "experimentalValue": "90 to 100%"}
{"compound": "CS(=O)(=O)N[C@@H]1[C@H](Cc2cccc(-c3ccccc3)c2F)N(C(=O)[C@@H]2CCO2)CC12CC2", "experimentalValue": "90 to 100%"}
{"compound": "CC1(CNC(=O)N2CC3(CC3)[C@H](NS(C)(=O)=O)[C@@H]2Cc2cccc(-c3ccccc3)c2F)COC1", "experimentalValue": "90 to 100%"}
{"compound": "CS(=O)(=O)N[C@@H]1[C@H](Cc2cccc(-c3cccc(Cl)c3)c2F)N(C(=O)[C@H]2CCO2)CC12CC2", "experimentalValue": "90 to 100%"}

These entries and their values trace back to patent US12503475B2.
